Test system: RARb homodimer (NR concentration 270 nM)
RUN_DESCRIPTION: PBM binding z-score (relative to random genomic background probes); higher = stronger binding; sequences stand for … in GC…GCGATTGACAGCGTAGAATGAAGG
MEASUREMENT_TYPE: PBM binding z-score

>>> reported_result("CGTGCAAGGTCAGAGAGGTCAGTGAATGCCGAGT")
5.37
>>> reported_result("CTATGTAGGTTAAGGGGGTCATTCAATTTGAAAG")
3.69
>>> reported_result("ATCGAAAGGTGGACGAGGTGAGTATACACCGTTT")
0.375
>>> reported_result("TAGCCTAGGTCATTCAGGGGCCAGTATGGAAAGC")
3.26
>>> reported_result("TCTAGTAGGTCACGGAGGTCACACACGACGGGTA")
4.79
>>> reported_result("ATACGTAGGTTACATCCGGGTCATTCAGGCTATG")
2.79
>>> reported_result("TAGCCTAGGTCATTCAGGGGCCAGAATAGAAAGC")
3.56
>>> reported_result("CGTCCAAGGTCCATGCTAGGTCAGTGAAAGCATT")
2.62
>>> reported_result("CCTAGTTGGTCAGGAAGTCACACACCGGATATGA")
1
>>> reported_result("TCTAGCAGGCCATAGGGTCACTCAAGAGGTACGG")
3.27
>>> reported_result("ATCGAAAGGTCGACGAGTTGAGTATACACCGTTT")
2.63
>>> reported_result("TAGCCTCGGTCATTGGGCCAGTATAGTACGCATC")
1.53
>>> reported_result("CGCACTAGGTCAAAGGACAGTGAAAGGCGACGTA")
3.01
>>> reported_result("CGAACTAGGTCAGAACAGGACATTGAAGGATGAT")
2.12
>>> reported_result("ATCGAAAGGTCGTCGAGGTGAGTATACACCGTTT")
3.07
>>> reported_result("CCTACTGGGCCATTAAGAGGTCATTGATCATATG")
3.96
>>> reported_result("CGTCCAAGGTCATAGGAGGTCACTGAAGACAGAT")
5.4
>>> reported_result("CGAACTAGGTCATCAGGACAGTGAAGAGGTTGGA")
3.22
>>> reported_result("AGTCGGAGGACAAAGGTCAGAGCTACGCCAGTGA")
4.3
>>> reported_result("TGTCAAAGTTCTAAGGTAACGTAAGTATCCACAC")
0.168
>>> reported_result("ATATGTAGGTTAGGGTCACTCAGAAAGTAGGGAA")
3.57
>>> reported_result("AATACAGGGACATCGTAGGCCAGAGTACGCACAG")
0.605
>>> reported_result("CGAACTAGGTCACCAGGACAGTCAAGAGGTTGGA")
3.44
>>> reported_result("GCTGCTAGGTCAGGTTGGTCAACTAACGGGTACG")
2.85
>>> reported_result("ATCGAAACGTCGTGAGGTGAGTATACAGAAAGGC")
-0.153
>>> reported_result("TCGAGTAGGTTACGGGGGGATTCAGGGATGAAGA")
1.73
>>> reported_result("CAAACTAGGTCACCGGGAGGTCAAAGTCCGCATG")
5.88
>>> reported_result("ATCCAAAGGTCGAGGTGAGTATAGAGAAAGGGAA")
3.21
>>> reported_result("ATTTGTAGGTTAGGGTCATTCAGAAAGTAGGGAA")
3.88
>>> reported_result("CCTTACGGGTCACTCCATGTTATAGCATCGGAGT")
2.87
>>> reported_result("CGCCCAAGGTCAGCAGGTCAGTGAAAGCGACGTG")
4.99
>>> reported_result("TTGAGTAGGTTACGGGGGCATTCAGGGATGAAGA")
2.59
>>> reported_result("TAGCCTAGGTCATAGGGCCAGTATAGTACGCATC")
2.98
>>> reported_result("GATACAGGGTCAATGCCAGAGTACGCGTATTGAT")
3.11
>>> reported_result("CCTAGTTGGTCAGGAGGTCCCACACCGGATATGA")
0.775
